- Subject Of Test: PRMT5 (Homo sapiens)
- Construct: purchased Viva (custom protein)
- Sequence (O14744 whole entry): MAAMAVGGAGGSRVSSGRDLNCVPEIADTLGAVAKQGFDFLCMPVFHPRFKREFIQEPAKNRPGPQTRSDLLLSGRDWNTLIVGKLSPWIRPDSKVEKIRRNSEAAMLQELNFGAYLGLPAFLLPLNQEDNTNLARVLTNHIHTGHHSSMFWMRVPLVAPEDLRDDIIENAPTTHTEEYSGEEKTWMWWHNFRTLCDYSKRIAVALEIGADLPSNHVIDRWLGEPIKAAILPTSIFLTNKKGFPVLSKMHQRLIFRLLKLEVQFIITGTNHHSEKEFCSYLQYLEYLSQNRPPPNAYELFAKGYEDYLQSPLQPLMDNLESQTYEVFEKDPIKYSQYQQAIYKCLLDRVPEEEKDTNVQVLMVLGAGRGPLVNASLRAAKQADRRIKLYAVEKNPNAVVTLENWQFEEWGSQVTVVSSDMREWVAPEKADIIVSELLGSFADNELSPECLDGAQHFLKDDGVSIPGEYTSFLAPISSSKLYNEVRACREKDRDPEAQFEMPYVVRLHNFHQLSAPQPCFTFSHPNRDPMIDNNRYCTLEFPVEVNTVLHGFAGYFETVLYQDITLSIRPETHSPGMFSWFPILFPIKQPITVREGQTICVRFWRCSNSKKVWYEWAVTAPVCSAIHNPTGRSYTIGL
- Sequence (Q9BQA1 whole entry partner): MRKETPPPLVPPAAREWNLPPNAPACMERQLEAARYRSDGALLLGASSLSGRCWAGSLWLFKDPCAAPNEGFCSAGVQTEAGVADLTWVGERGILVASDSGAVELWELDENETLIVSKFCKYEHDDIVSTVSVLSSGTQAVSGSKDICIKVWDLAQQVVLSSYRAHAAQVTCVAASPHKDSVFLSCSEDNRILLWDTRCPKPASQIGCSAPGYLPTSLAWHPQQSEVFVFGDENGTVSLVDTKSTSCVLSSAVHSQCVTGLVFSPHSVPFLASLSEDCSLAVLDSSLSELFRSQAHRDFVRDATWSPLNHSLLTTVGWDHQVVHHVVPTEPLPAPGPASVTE
- Procedure Text: PRMT5 biochemical IC50 assay with SAM as cofactor
- Test Context: PRMT5, SAM as cofactor; read-out: SAM IC50
pIC50: −log10 of the molar value.
Readout: pIC50

Some compounds with recorded pIC50:
>>> recorded_value("C[C@H]1CC[C@H](c2cc3cn[nH]c3cc2F)N(C(=O)C(=O)Nc2cncc(C(N)=O)c2)C1 (single isomer, unassigned)")
"6.30 to 7.30"
>>> recorded_value("Cc1cc(NC(=O)C(=O)N2C[C@@H](C)CC[C@@H]2c2ccc(-c3nccs3)cc2)cnc1N (single isomer, unassigned)")
"6.30 to 7.30"

# ---- query compound ----
Exercise: Quote pIC50 reported for CCc1cc(NC(=O)C(=O)N2C[C@@H](C)[C@@H](OC(C)C)C[C@@H]2c2ccc3scnc3c2)cnc1N (racemic) please.
Key: 6.30 to 7.30

This collection of values is drawn from patent US11999727B2.
